Test system: eIF2α
Test: eIF2α phosphorylation measured by Western blot
Format: cell-based
Conditions: Western blot; unit or reference not given
Exam item: assign Condition met to entries whose eIF2α-P (phosphorylation of eIF2α measured by Western blot) is below 2 and Condition not met to entries at or above 2. Note that a value of exactly 2 receives Condition not met.

Below are worked cases with known answers.
CCCCCCCCc1ccc(O)c(C2(c3ccccc3)C(=O)Nc3ccccc32)c1 (stereo not shown) [Compound 1284] ... Condition not met
CC(C)(C)c1cccc(C2(c3ccccc3)C(=O)Nc3ccccc32)c1 (stereo not shown) [Compound 1217] ... Condition met
C#CC1(c2cc(C(C)(C)C)ccc2O)C(=O)Nc2ccccc21 (stereo not shown) [Compound 1276] ... Condition met
CC(=O)Nc1ccc(S(=O)(=O)Nc2cc(O)c(C)cc2C2(c3ccccc3)C(=O)Nc3ccccc32)cc1 (stereo not shown) [Compound 1512] ... Condition met
CCCCCCCc1ccc(O)c(C2(c3ccccc3)C(=O)Nc3ccccc32)c1 (stereo not shown) [Compound 1279] ... Condition not met

Hello, I'm reviewing records and need to know if eIF2α-P (phosphorylation of eIF2α measured by Western blot) of O=C1Nc2ccc([N+](=O)[O-])cc2C1(c1ccccc1)c1ccccc1 [Compound 1265] is below 2. Could you check? Condition not met

Hello, I'm reviewing records and need to know if eIF2α-P (phosphorylation of eIF2α measured by Western blot) of O=C1Nc2ccc(Cl)cc2C1(c1ccccc1)c1ccccc1 [Compound 1206] is below 2. Could you check? Condition met

Hello, I'm reviewing records and need to know if eIF2α-P (phosphorylation of eIF2α measured by Western blot) of CC(C)(C)c1ccc(O)c(C2(c3ccccc3)C(=O)Nc3ccc([N+](=O)[O-])cc32)c1 (stereo not shown) [Compound 1212] is below 2. Could you check? Condition met

Hello, I'm reviewing records and need to know if eIF2α-P (phosphorylation of eIF2α measured by Western blot) of CC(C)c1ccc(O)c(C2(c3ccccc3)C(=O)Nc3ccccc32)c1 (stereo not shown) [Compound 1282] is below 2. Could you check? Condition not met

###

We begin with a simple list: items and their reported eIF2α-P (phosphorylation of eIF2α measured by Western blot).
System: eIF2α
Test: eIF2α phosphorylation measured by Western blot
Format: cell-based
Conditions: Western blot; unit or reference not given
Simply state the number, no unit and no words.

Example cases with answers are listed next.
O=C1Nc2ccccc2C1(c1ccccc1)c1ccc(O)c(C(F)(F)F)c1 (stereo not shown) ... 2.72
Cc1cc(C2(c3ccccc3)C(=O)Nc3ccccc32)c(NC(=O)c2ccc(C(C)(C)C)cc2)cc1O (stereo not shown) ... 2.06
CCCCCCCCCc1ccc(O)c(C2(c3ccccc3)C(=O)Nc3ccccc32)c1 (stereo not shown) ... 3.89
CCc1ccc2c(c1)NC(=O)C2(c1ccccc1)c1ccccc1 ... 1.58
Nc1ccc(CCNC(=O)c2ccc(Cl)c3c2NC(=O)C3(c2ccccc2)c2ccccc2)cc1 ... 3.80
CCc1cccc2c1NC(=O)C2(c1ccccc1)c1cc(C(C)(C)C)ccc1O (stereo not shown) ... 1.3
Cc1cc(C2(c3ccccc3)C(=O)Nc3ccccc32)c(NS(=O)(=O)c2ccc(I)cc2)cc1O (stereo not shown) ... 5.19
CCc1ccc2c(c1)C(c1ccccc1)(c1cc(C(C)(C)C)ccc1O)C(=O)N2 (stereo not shown) ... 2.12
Cc1ccc(O)c(C2(c3ccccc3)C(=O)Nc3ccccc32)c1 (stereo not shown) ... 3.33
CC(C)(C)c1ccc(O)c(C2(c3ccccc3)C(=O)Nc3ccccc32)c1 (stereo not shown) ... 5

# input compound: C=CCN1C(=O)C(c2ccccc2)(c2cc(C(C)(C)C)ccc2O)c2ccccc21 (stereo not shown) ; wanted: its eIF2α-P (phosphorylation of eIF2α measured by Western blot) 2.23

# input compound: CC(C)(C)c1ccc(O)c(C2(c3ccccc3)C(=O)Nc3cc(Br)ccc32)c1 (stereo not shown) ; wanted: its eIF2α-P (phosphorylation of eIF2α measured by Western blot) 3.2

# input compound: Cc1ccccc1C1(c2cc(C(C)(C)C)ccc2O)C(=O)Nc2ccccc21 (stereo not shown) ; wanted: its eIF2α-P (phosphorylation of eIF2α measured by Western blot) 1.69
